assay: amyloid nucleation score (Sup35N fusion, yeast selection) (log enrichment); library NNK3; higher = more nucleation; inactive = no reads after selection;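 further: zero at mode of non-aggregating sequences after 7 days selection at 30°C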
measuredParameter: amyloid nucleation score

Before answering, review these 5 worked examples.
LFLSDKLPTFSRLNKCMLGV | -1.31
RSDLCFC | inactive
DERLVYGEKSCRFSLSYANM | inactive
SSYLNYIFSMTLECIYGC | -0.272
FLLRYWYKAVDSRHRYSQLI | inactive

What amyloid nucleation score value was documented for this substance, HMPVSIFSAFVYMTQNHAIG ?
1.75

IMVCKWTSPTSTMPHDDLGC ?
inactive

KRLSCNFRSRSKSSGWPTLV ?
inactive

KRANSE ?
1.11

NLCRVMMFSFFTLLV ?
1.44

WGEPIVLDLSSFFDLVDRHG ?
inactive

IDVRGSMYGVMMYHSTRDVT ?
inactive

YLVYRNVTMVCPDRQH ?
0.375

NDWREANLF ?
inactive

SSNNQMWTELITYCLRCAWV ?
inactive

RQDLSHSFSDGRERQHWAKR ?
-0.165

VMVSYG ?
inactive

LPCWKFGLASHR ?
inactive

* * *

assay: amyloid nucleation score (Sup35N fusion, yeast selection) (log enrichment); library NNK1; higher = more nucleation; inactive = no reads after selection
measuredParameter: amyloid nucleation score

INVMWRYSFWLEFQT | -0.442
LSLSLMLGDIPSTIMRGCFR | inactive
HSSNAAFCYAVTIYLQVLLV | 0.837
VVCFMPVLMAVQMGCSHWNY | 3.55
STYYVVRDFFLDSSTGTVYS | -0.031

What amyloid nucleation score value was documented for this sequence, ILFSNCSFLKSCYWFK ?
7.25

LHRIVTVNIP ?
1.23

HFYSRYRTPQTRS ?
-0.549

TRLVVLRSW ?
1.14

PNRSLCTVNMCIYVETGFMV ?
inactive

TLCQFSSARACYAWVVFPTY ?
1.19

FAAVPYISVLIRRLCLPYRT ?
1.07

FFVFSSLGHLV ?
0.859

HCILHKANFRGFTHSSYEVG ?
4.68

AWRDTDVASSVICG ?
0.932

RSMYVSRRPIVPPLYIGFWE ?
0.166

* * *

test: amyloid nucleation score (Sup35N fusion, yeast selection) (log enrichment); library NNK1; higher = more nucleation; inactive = no reads after selection
measuredParameter: amyloid nucleation score
Give your answer as a number; write no unit.

Before answering, review these 4 worked examples.
STASQWQCHD | 0.461
LNALFYLKWALRRWSRKYCE | 1.39
QVFATRDAQRYLLMHRIDHN | -0.153
FTGNLSGDCIYYFLCVVLSM | 0.47

What amyloid nucleation score value was documented for this substance, TYLIKMSVT ?
0.313

TRNVMFINVALHFSNLVGWC ?
4.21

SHLGVVCNRLVYERETNVST ?
-0.191

MTPTTWLYPVILTSSLS ?
0.44

CPVNDMGVWGKMACWNNRV ?
-0.691

SYKVTLVYSRHVVGVKVTRI ?
0.233

QYCIHNNFEYDGL ?
-0.98

CELGTIDHSEKMLMVNWCAG ?
0.967

EVAFRVTCCSCWLISRNVGR ?
2.77

TFSFTAYNPCFDSFSTVGLS ?
-0.147

HLYTVTHGSLNDKTGRP ?
0.31
